All values here come from patent US9326985B2.

System: CD69 by B lymphocytes in human whole blood activated with goat F(ab')2 anti-human IgM
assayOverview: CD69 Whole Blood Assay (CD69 Hu Blood FACS)
Assay type: cell-based
runConditions: Lymphocyte, Table 1, anti-IgM stimulation, CD69 positive of CD20 positive cells
pIC50: −log10 of the molar value.
valueType: pIC50

INSERT INTO assay_data (compound, endpointvalue) VALUES
  ('Cn1cc(-c2ccnc(N3CCn4c(cc5c4CC(C)(C)C5)C3=O)c2CO)cc(NC(=O)c2cccnc2)c1=O [Compound 109]', '< 5.28'),
  ('Cn1cc(C(=O)Nc2cc(-c3ccnc(N4CCn5c(cc6c5CC(C)(C)C6)C4=O)c3CO)cn(C)c2=O)cn1 [Compound 110]', '< 5.59'),
  ('Cc1cc(C(=O)Nc2cc(-c3ccnc(N4CCn5c(cc6c5CC(C)(C)C6)C4=O)c3CO)cn(C)c2=O)n[nH]1 [Compound 111]', '< 5.27');

----------
Tested on: CD69 by B lymphocytes in human whole blood activated with goat F(ab')2 anti-human IgM
assayOverview: CD69 Whole Blood Assay (CD69 Hu Blood FACS)
Type: cell-based
runConditions: Lymphocyte, Table 1, anti-IgM stimulation, CD69 positive of CD20 positive cells
pIC50: −log10 of the molar value.
Readings of pIC50 for the listed molecules
valueType: pIC50

INSERT INTO assay_data (mol, endpointvalue) VALUES
  ('Cn1cc(-c2ccnc(N3CCn4c(cc5c4CC(C)(C)C5)C3=O)c2CO)cc(NC(=O)CN2CCOCC2)c1=O', '< 5.30'),
  ('Cn1cc(-c2ccnc(N3CCn4c(cc5c4CC(C)(C)C5)C3=O)c2CO)cc(NC(=O)c2cnco2)c1=O', '< 5.49'),
  ('Cn1cc(-c2ccnc(N3CCn4c(cc5c4CC(C)(C)C5)C3=O)c2CO)cc(NC(=O)c2ccccc2)c1=O', '< 5.27');
